Source of measurements: PubChem BioAssay

Parameter: inhibition. Scope: all listed entries.
Assay: growth inhibition, single agent or in combination, cell-based, chromothripsis tumors, cisplatin or BGB combos (AID 1671449);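 further: cells exposed for 96 hours; 0% = vehicle DMSO and 100% = killing by high DMSO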
Conditions: LFS_MB_P medulloblastoma cells, measured here: combination with BGB IC20, at 0.005 µM
value-type: inhibition (%)

1) CC(=O)Nc1nc(C)c(-c2ccc(Cl)c(S(=O)(=O)NCCO)c2)s1: -29.7
2) COc1cc2ncnc(-n3nc(-c4ccccn4)nc3N)c2cc1OC: -6.46
3) CN(C)CCN1C(=O)c2cccc3cc(N)cc(c23)C1=O: -27.8
4) O=C(/C=C/c1ccc(CN(CCO)CCc2c[nH]c3ccccc23)cc1)NO: -29.5
5) CC(C)OC(=O)[C@H](C)N[P@](=O)(OC[C@H]1O[C@@H](n2ccc(=O)[nH]c2=O)[C@](C)(F)[C@@H]1O)Oc1ccccc1: -8.86
